Data origin, for the record: ChEMBL document CHEMBL4152342

# pIC50 annotations
Tested on: MCF7
Experiment: Antiproliferative activity against human MCF7 cells after 48 hrs by MTT assay
Type: functional, cell-based
Conditions: MCF7, 48 h
pIC50: −log10 of the molar value.

Look over these answered cases.
> print(dat)
                          chemicalstructure   value
1  O=C(CN1CCCCC1)Nc1ccc2ncnc(Nc3ccc(Cl)cc3)c2c1  < 4.00
2  O=C(CN1CCCC1)Nc1ccc2ncnc(Nc3cccc(Br)c3)c2c1    4.92
3  CN1CCN(CC(=O)Nc2ccc3ncnc(Nc4ccc(Br)cc4)c3c2)CC1  < 4.00
4  O=C(CN1CCCC1)Nc1ccc2ncnc(Nc3ccc(Cl)c(C(F)(F)F)c3)c2c1  < 4.00
5  CN1CCN(CC(=O)Nc2ccc3ncnc(Nc4ccc(Cl)c(C(F)(F)F)c4)c3c2)CC1  < 4.00
6  O=C(CN1CCOCC1)Nc1ccc2ncnc(Nc3ccc(Br)cc3)c2c1  < 4.00

The compound listed as O=C(CN1CCOCC1)Nc1ccc2ncnc(Nc3ccc(Cl)c(C(F)(F)F)c3)c2c1 shows pIC50 equal to < 4.00

---

# IC50 annotations
Tested on: MCF7
Test: Antiproliferative activity against human MCF7 cells after 48 hrs by MTT assay
Type: functional, cell-based
Conditions: MCF7, 48 h

Look over these answered cases.
> print(dat)
                          chemicalstructure     value
1  O=C(CN1CCOCC1)Nc1ccc2ncnc(Nc3ccc(OCc4cccc(F)c4)cc3)c2c1  > 100 µM
2  O=C(CN1CCCCC1)Nc1ccc2ncnc(Nc3ccc(Cl)c(C(F)(F)F)c3)c2c1  > 100 µM
3  O=C(CN1CCCC1)Nc1ccc2ncnc(Nc3cccc(C(F)(F)F)c3)c2c1  > 100 µM
4  O=C(CN1CCOCC1)Nc1ccc2ncnc(Nc3cccc(Cl)c3)c2c1  > 100 µM
5  O=C(CN1CCCCC1)Nc1ccc2ncnc(Nc3cccc(Cl)c3)c2c1  > 100 µM

Here CN1CCN(CC(=O)Nc2ccc3ncnc(Nc4cccc(Br)c4)c3c2)CC1 was tested on MCF7, and its IC50 came to 10 µM

Here O=C(CN1CCCCC1)Nc1ccc2ncnc(Nc3cccc(Br)c3)c2c1 was tested on MCF7, and its IC50 came to 3 µM

Here O=C(CN1CCOCC1)Nc1ccc2ncnc(Nc3cccc(Br)c3)c2c1 was tested on MCF7, and its IC50 came to 15 µM

Here O=C(CN1CCCC1)Nc1ccc2ncnc(Nc3ccc(Br)cc3)c2c1 was tested on MCF7, and its IC50 came to > 100 µM

Here O=C(CN1CCOCC1)Nc1ccc2ncnc(Nc3cccc(C(F)(F)F)c3)c2c1 was tested on MCF7, and its IC50 came to 15 µM

---

# pIC50 annotations
System: HepG2
Assay: Antiproliferative activity against human HepG2 cells after 48 hrs by MTT assay
Assay type: functional, cell-based
Details: HepG2, 48 h
pIC50: −log10 of the molar value.

> print(dat)
                          chemicalstructure  targetortestsystem   value
1  CN1CCN(CC(=O)Nc2ccc3ncnc(Nc4cccc(Cl)c4)c3c2)CC1               HepG2  < 4.00
2  O=C(CN1CCCCC1)Nc1ccc2ncnc(Nc3ccc(Cl)cc3)c2c1               HepG2    4.80
3  O=C(CN1CCOCC1)Nc1ccc2ncnc(Nc3ccc(Cl)cc3)c2c1               HepG2  < 4.00
4  O=C(CN1CCOCC1)Nc1ccc2ncnc(Nc3ccc(Cl)c(C(F)(F)F)c3)c2c1               HepG2  < 4.00
5  O=C(CN1CCCCC1)Nc1ccc2ncnc(Nc3cccc(C(F)(F)F)c3)c2c1               HepG2  < 4.00

The compound listed as O=C(CN1CCCCC1)Nc1ccc2ncnc(Nc3ccc(Br)cc3)c2c1 shows pIC50 equal to < 4.00
